// reported Activity per item
# Tested on: Rattus norvegicus
# Assay protocol: Hypotensive activity in normotensive Wistar rat assessed as systolic blood pressure at 5 mg/kg, iv measured after 20 mins (reference value: 119.2 to 148.6 mmHg)
# Type: functional
Report only the number, with the unit mmHg understood.

Reference set (5 entries):
COc1ccccc1OCCNCC(O)COc1cccc2c(=O)c3ccccc3oc12.Cl (racemic) : 97.7
Cc1cccc2c(=O)c3ccc(OCC(O)CNC(C)(C)C)cc3oc12.Cl (racemic) : 160
COc1ccccc1CCNCC(O)COc1cccc2c(=O)c3ccccc3oc12.Cl (racemic) : 128.2
COc1ccccc1CNCC(O)COc1cccc2c(=O)c3ccccc3oc12.Cl (racemic) : 133
Cl.O=c1c2ccccc2oc2c(OCC(O)CN3CCN(c4ccccn4)CC3)cccc12 (racemic) : 129.8

Recorded Activity for COc1ccc(CCNCC(O)COc2cccc3c(=O)c4ccccc4oc23)cc1OC.Cl (racemic) with Rattus norvegicus, please?
127

Item: Cl.O=c1c2ccccc2oc2cc(OCC(O)CN3CCN(c4ccccn4)CC3)ccc12 (racemic) Test system: Rattus norvegicus Read-out: Activity Value: ?
108.8

* * *

# Tested on: Rattus norvegicus
# Assay protocol: Cardiotoxicity in Wistar rat assessed as effect on QT interval time at 5 mg/kg, iv measured after 15 mins (reference value: 57.7 to 61 ms)
# Type: toxicity, organism-based
# Recorded conditions: in vivo, 0.25 h
# Time per record follows
Reply with just the number (in ms).

COc1ccc(CCNCC(O)COc2cccc3c(=O)c4ccccc4oc23)cc1OC.Cl (racemic) : 63.3

Item Cl.O=c1c2ccccc2oc2cc(OCC(O)CN3CCN(c4ccccn4)CC3)ccc12 (racemic) has what recorded Time?
59

Can you look up the measured Time of COc1ccccc1OCCNCC(O)COc1cccc2c(=O)c3ccccc3oc12.Cl (racemic) for me?
63.3

Which Time reading was recorded for the molecule COc1ccccc1CCNCC(O)COc1cccc2c(=O)c3ccccc3oc12.Cl (racemic) ?
60

Query: Time; subject: Cc1cccc2c(=O)c3ccc(OCC(O)CNC(C)(C)C)cc3oc12.Cl (racemic)
58.5

Data request, read-out Time, for COc1ccccc1CNCC(O)COc1cccc2c(=O)c3ccccc3oc12.Cl (racemic)
66.7

Look at this molecule and give its reported Time. Cl.O=c1c2ccccc2oc2c(OCC(O)CN3CCN(c4ccccn4)CC3)cccc12 (racemic)
60.2

* * *

# Tested on: Rattus norvegicus
# Assay protocol: Cardiotoxicity in Wistar rat assessed as effect on QRS interval time at 5 mg/kg, iv measured after 1 min (reference value: 16.7 to 20.7 ms)
# Format: toxicity, organism-based
# Recorded conditions: in vivo
Time under 20 ms gets 1, anything at or over 20 ms gets 0.

# example entries with known answers
Cl.O=c1c2ccccc2oc2cc(OCC(O)CN3CCN(c4ccccn4)CC3)ccc12 (racemic) : 1
Cl.O=c1c2ccccc2oc2c(OCC(O)CN3CCN(c4ccccn4)CC3)cccc12 (racemic) : 1

A record lists COc1ccc(CCNCC(O)COc2cccc3c(=O)c4ccccc4oc23)cc1OC.Cl (racemic) . Is its Time below 20 ms?
0

Criterion: Time strictly below 20 ms. Is it met by Cc1cccc2c(=O)c3ccc(OCC(O)CNC(C)(C)C)cc3oc12.Cl (racemic) ?
1

Is Time strictly under 20 ms for the entry COc1ccccc1CCNCC(O)COc1cccc2c(=O)c3ccccc3oc12.Cl (racemic) ?
1

Answer whether the compound COc1ccccc1CNCC(O)COc1cccc2c(=O)c3ccccc3oc12.Cl (racemic) has Time strictly less than 20 ms
0

hey, is Time for COc1ccccc1OCCNCC(O)COc1cccc2c(=O)c3ccccc3oc12.Cl (racemic) lower than 20 ms or not?
1

# credit: ChEMBL document CHEMBL4118148
